Test system: 349418-098-R-PDC complex spheroid growth
Experiment: Anticancer human tumor 349418-098-R-PDC patient-derived lung adenocarcinoma cell line growth inhibition [AhR]; active = viability on the fitted dose curve at most 10% of control; inactive = the rest
Details: second compound 1 µM; first compound 0.03 µM
Your answer must be one of the following: yes (1) (active), no (0) (inactive)

// known answers, use as guide
compound	categoryLabel
CCN(c1cc(-c2ccc(CN3CCOCC3)cc2)cc(C(=O)NCc2c(C)cc(C)[nH]c2=O)c1C)C1CCOCC1 + Cc1cncc(-c2nc(NCCc3c[nH]c4ccccc34)c3ncn(C(C)C)c3n2)c1	no (0)
CC(C)CC(NC(=O)C(Cc1ccccc1)NC(=O)c1cnccn1)B(O)O (stereo not drawn) + Cc1ccccc1N=Nc1ccc(NC(=O)c2ccnn2C)c(C)c1	yes (1)

Problem: Assay outcome for Nc1ncn(C2CC(O)C(CO)S2)c(=O)n1 (stereo not drawn) + CC(CO)NC(=O)c1cc(-c2ccc(Cl)cc2)nn(-c2cnn(C)c2)c1=O : what was it?
Result: no (0)

* * *

System: 349418-098-R-PDC complex spheroid growth
Assay: Anticancer human tumor 349418-098-R-PDC cell line growth inhibition [AhR]; active = viability on the fitted dose curve at most 10% of control; inactive = the rest
Details: second compound 3.16 µM; first compound 0.1 µM
Your answer must be one of the following: true (1) = active, false (0) = inactive

// known answers, use as guide
compound	categoryLabel
Nc1ccccc1NC(=O)c1ccc(CNC(=O)OCc2cccnc2)cc1 + Cc1ccccc1N=Nc1ccc(NC(=O)c2ccnn2C)c(C)c1	false (0)
Nc1ncn(C2CC(O)C(CO)O2)c(=O)n1 (stereo not drawn) + CC(CO)NC(=O)c1cc(-c2ccc(Cl)cc2)nn(-c2cnn(C)c2)c1=O	false (0)
COc1ccc([C@@H](O)c2cc(-c3ncnc4cc(N5CCOCC5)ccc34)c(F)cc2Cl)nn1 + CC(CO)NC(=O)c1cc(-c2ccc(Cl)cc2)nn(-c2cnn(C)c2)c1=O	false (0)
COc1cc(C2c3cc4c(cc3C(OC3OC5COC(C)OC5C(O)C3O)C3COC(=O)C23)OCO4)cc(OC)c1O (stereo not drawn) + Cc1ccccc1N=Nc1ccc(NC(=O)c2ccnn2C)c(C)c1	false (0)

Problem: Assay outcome for Cn1ncnc1C1c2n[nH]c(=O)c3cc(F)cc(c23)NC1c1ccc(F)cc1 (stereo not drawn) + Cc1cncc(-c2nc(NCCc3c[nH]c4ccccc34)c3ncn(C(C)C)c3n2)c1 : what was it?
Result: false (0)

Problem: Assay outcome for CC(C)c1c(-c2ccccc2)nc2c(C#N)c[nH]n2c1=O + Cc1cncc(-c2nc(NCCc3c[nH]c4ccccc34)c3ncn(C(C)C)c3n2)c1 : what was it?
Result: false (0)

Problem: Assay outcome for COc1ccc([C@@H](O)c2cc(-c3ncnc4cc(N5CCOCC5)ccc34)c(F)cc2Cl)nn1 + Cc1ccccc1N=Nc1ccc(NC(=O)c2ccnn2C)c(C)c1 : what was it?
Result: false (0)

Problem: Assay outcome for CC1COCCN1c1cc(C2(S(C)(=N)=O)CC2)nc(-c2ccnc3[nH]ccc23)n1 (stereo not drawn) + Cc1ccccc1N=Nc1ccc(NC(=O)c2ccnn2C)c(C)c1 : what was it?
Result: false (0)

Problem: Assay outcome for CC[C@@]1(O)C(=O)OCc2c1cc1n(c2=O)Cc2cc3c(CN(C)C)c(O)ccc3nc2-1 + CC(CO)NC(=O)c1cc(-c2ccc(Cl)cc2)nn(-c2cnn(C)c2)c1=O : what was it?
Result: false (0)

Problem: Assay outcome for Nc1ncn(C2CC(O)C(CO)O2)c(=O)n1 (stereo not drawn) + Cc1ccccc1N=Nc1ccc(NC(=O)c2ccnn2C)c(C)c1 : what was it?
Result: false (0)

Problem: Assay outcome for COc1cc(C2c3cc4c(cc3C(OC3OC5COC(C)OC5C(O)C3O)C3COC(=O)C23)OCO4)cc(OC)c1O (stereo not drawn) + CC(CO)NC(=O)c1cc(-c2ccc(Cl)cc2)nn(-c2cnn(C)c2)c1=O : what was it?
Result: false (0)

Problem: Assay outcome for Nc1ccn(C2OC(CO)C(O)C2(F)F)c(=O)n1 (stereo not drawn) + CC(CO)NC(=O)c1cc(-c2ccc(Cl)cc2)nn(-c2cnn(C)c2)c1=O : what was it?
Result: false (0)

Problem: Assay outcome for CC1COCCN1c1cc(-c2ccnn2C)c2ccnc(-c3ccn[nH]3)c2n1 (stereo not drawn) + Cc1cncc(-c2nc(NCCc3c[nH]c4ccccc34)c3ncn(C(C)C)c3n2)c1 : what was it?
Result: true (1)

* * *

System: 349418-098-R-PDC complex spheroid growth
Assay: Anticancer human tumor 349418-098-R-PDC cell line growth inhibition [AhR]; active means viability on the fitted dose curve at most 10% of control; inactive means the rest;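 note: spheroids also contain HUVEC endothelial cells and human MSC stroma; spheroids exposed to agents for seven days before luminescence viability read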
Details: second compound 10 µM; first compound 0.3 µM
Your answer must be one of the following: active, inactive

// known answers, use as guide
compound	categoryLabel
Nc1ncn(C2CC(O)C(CO)S2)c(=O)n1 (stereo unspecified) + Cc1ccccc1N=Nc1ccc(NC(=O)c2ccnn2C)c(C)c1	inactive
CC(C)CC(NC(=O)C(Cc1ccccc1)NC(=O)c1cnccn1)B(O)O (stereo unspecified) + Cc1cncc(-c2nc(NCCc3c[nH]c4ccccc34)c3ncn(C(C)C)c3n2)c1	active
O=C(C=Cn1cnc(-c2cc(C(F)(F)F)cc(C(F)(F)F)c2)n1)NNc1cnccn1 + Cc1cncc(-c2nc(NCCc3c[nH]c4ccccc34)c3ncn(C(C)C)c3n2)c1	active
O=C(C=Cn1cnc(-c2cc(C(F)(F)F)cc(C(F)(F)F)c2)n1)NNc1cnccn1 + Cc1ccccc1N=Nc1ccc(NC(=O)c2ccnn2C)c(C)c1	inactive
CC(C)CC(NC(=O)C(Cc1ccccc1)NC(=O)c1cnccn1)B(O)O (stereo unspecified) + CC(CO)NC(=O)c1cc(-c2ccc(Cl)cc2)nn(-c2cnn(C)c2)c1=O	active

Problem: Assay outcome for O=C(C=Cn1cnc(-c2cc(C(F)(F)F)cc(C(F)(F)F)c2)n1)NNc1cnccn1 + CC(CO)NC(=O)c1cc(-c2ccc(Cl)cc2)nn(-c2cnn(C)c2)c1=O : what was it?
Result: inactive

* * *

System: 349418-098-R-PDC complex spheroid growth
Assay: Anticancer human tumor 349418-098-R-PDC cell line growth inhibition [AhR];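 note: spheroids also contain HUVEC endothelial cells and human MSC stroma; spheroids exposed to agents for seven days before luminescence viability read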
Conditions: second compound 0.1 µM; first compound 0.1 µM; stronger effect = lower value
measure: viability, T/C (%)
Write the answer as a number in %, unit excluded.

// solved cases for viability, T/C follow
compound	viability, T/C (%)
CC1COCCN1c1cc(C2(S(C)(=N)=O)CC2)nc(-c2ccnc3[nH]ccc23)n1 (stereo unspecified) + Cc1ccccc1N=Nc1ccc(NC(=O)c2ccnn2C)c(C)c1	110
NS(=O)(=O)OCC1CC(n2ccc3c(NC4CCc5ccccc54)ncnc32)CC1O (stereo unspecified) + Cc1cncc(-c2nc(NCCc3c[nH]c4ccccc34)c3ncn(C(C)C)c3n2)c1	69.6
COc1cc(C2c3cc4c(cc3C(OC3OC5COC(C)OC5C(O)C3O)C3COC(=O)C23)OCO4)cc(OC)c1O (stereo unspecified) + Cc1ccccc1N=Nc1ccc(NC(=O)c2ccnn2C)c(C)c1	98.8
CC1COCCN1c1cc(-c2ccnn2C)c2ccnc(-c3ccn[nH]3)c2n1 (stereo unspecified) + Cc1cncc(-c2nc(NCCc3c[nH]c4ccccc34)c3ncn(C(C)C)c3n2)c1	71.6
COc1cc(Nc2ncc3c(n2)-c2ccc(Cl)cc2C(c2c(F)cccc2OC)=NC3)ccc1C(=O)O + Cc1ccccc1N=Nc1ccc(NC(=O)c2ccnn2C)c(C)c1	50.9

Turning to the following compound.
Problem: # return recorded viability, T/C for input Nc1ccccc1NC(=O)c1ccc(CNC(=O)OCc2cccnc2)cc1 + Cc1ccccc1N=Nc1ccc(NC(=O)c2ccnn2C)c(C)c1
Result: 97.7

* * *

Tested on: 349418-098-R-PDC complex spheroid growth
Assay: Anticancer human tumor 349418-098-R-PDC cell line growth inhibition [AhR];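 note: spheroids also contain HUVEC endothelial cells and human MSC stroma; spheroids exposed to agents for seven days before luminescence viability read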
Conditions: second compound 3.16 µM; first compound 0.1 µM; stronger effect = lower value
measure: viability, T/C (%)
Write the answer as a number in %, unit excluded.

// solved cases for viability, T/C follow
compound	measure	value
O=C(C=Cc1cccc(S(=O)(=O)Nc2ccccc2)c1)NO + CC(CO)NC(=O)c1cc(-c2ccc(Cl)cc2)nn(-c2cnn(C)c2)c1=O	viability, T/C	102
Nc1ccccc1NC(=O)c1ccc(CNC(=O)OCc2cccnc2)cc1 + Cc1cncc(-c2nc(NCCc3c[nH]c4ccccc34)c3ncn(C(C)C)c3n2)c1	viability, T/C	15.7

Turning to the following compound.
Problem: # return recorded viability, T/C for input O=C(c1cc(Cc2n[nH]c(=O)c3ccccc23)ccc1F)N1CCN(C(=O)C2CC2)CC1 + Cc1cncc(-c2nc(NCCc3c[nH]c4ccccc34)c3ncn(C(C)C)c3n2)c1
Result: 19

* * *

Below, each of the molecules is paired with its reported viability, T/C value.
System: 349418-098-R-PDC complex spheroid growth
Assay: Anticancer human tumor 349418-098-R-PDC cell line growth inhibition [AhR];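 note: spheroids also contain HUVEC endothelial cells and human MSC stroma; spheroids exposed to agents for seven days before luminescence viability read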
Conditions: second compound 1 µM; first compound 10 µM; stronger effect = lower value

molecule	measure	value
CC1COCCN1c1cc(C2(S(C)(=N)=O)CC2)nc(-c2ccnc3[nH]ccc23)n1 (stereo not given) + Cc1cncc(-c2nc(NCCc3c[nH]c4ccccc34)c3ncn(C(C)C)c3n2)c1	viability, T/C	15.7%

Problem: # return recorded viability, T/C for input CC1COCCN1c1cc(C2(S(C)(=N)=O)CC2)nc(-c2ccnc3[nH]ccc23)n1 (stereo not given) + Cc1ccccc1N=Nc1ccc(NC(=O)c2ccnn2C)c(C)c1
Result: 16%

Problem: # return recorded viability, T/C for input O=C(C=Cc1cccc(S(=O)(=O)Nc2ccccc2)c1)NO + Cc1cncc(-c2nc(NCCc3c[nH]c4ccccc34)c3ncn(C(C)C)c3n2)c1
Result: 1.94%

Problem: # return recorded viability, T/C for input COc1cc(Nc2ncc3c(n2)-c2ccc(Cl)cc2C(c2c(F)cccc2OC)=NC3)ccc1C(=O)O + Cc1ccccc1N=Nc1ccc(NC(=O)c2ccnn2C)c(C)c1
Result: 26.5%

Problem: # return recorded viability, T/C for input COc1cc(C2c3cc4c(cc3C(OC3OC5COC(C)OC5C(O)C3O)C3COC(=O)C23)OCO4)cc(OC)c1O (stereo not given) + Cc1cncc(-c2nc(NCCc3c[nH]c4ccccc34)c3ncn(C(C)C)c3n2)c1
Result: 6.23%

Problem: # return recorded viability, T/C for input O=C(c1cc(Cc2n[nH]c(=O)c3ccccc23)ccc1F)N1CCN(C(=O)C2CC2)CC1 + Cc1cncc(-c2nc(NCCc3c[nH]c4ccccc34)c3ncn(C(C)C)c3n2)c1
Result: 65.1%

Problem: # return recorded viability, T/C for input Nc1ccccc1NC(=O)c1ccc(CNC(=O)OCc2cccnc2)cc1 + CC(CO)NC(=O)c1cc(-c2ccc(Cl)cc2)nn(-c2cnn(C)c2)c1=O
Result: 7.01%

Problem: # return recorded viability, T/C for input Nc1ccccc1NC(=O)c1ccc(CNC(=O)OCc2cccnc2)cc1 + Cc1ccccc1N=Nc1ccc(NC(=O)c2ccnn2C)c(C)c1
Result: 6.58%

Problem: # return recorded viability, T/C for input Nc1ccn(C2OC(CO)C(O)C2(F)F)c(=O)n1 (stereo not given) + Cc1ccccc1N=Nc1ccc(NC(=O)c2ccnn2C)c(C)c1
Result: 11.4%
